tested on: Saccharomyces cerevisiae; test: Inhibition of Saccharomyces cerevisiae alpha-glucosidase assessed as decrease in release of p-nitrophenol at 100 uM using pNPG as substrate preincubated for 15 min followed by substrate addition and measured after 5 mins by spectrophotometric method relative to control; conditions: time 20.0 min
Recorded inhibition by entry
Response body: numeric value in %, unit text excluded.

Before answering, review these 6 worked examples.
smiles string | tested on | observed
CCc1ccc(/C=N/NC(=O)Nc2sc3c(c2C#N)CCCC3)cc1 | Saccharomyces cerevisiae | 89.5
N#Cc1c(NC(=O)N/N=C/c2ccc([N+](=O)[O-])cc2)sc2c1CCCC2 | Saccharomyces cerevisiae | 57.6
Cc1ccc(/C=N/NC(=O)Nc2sc3c(c2C#N)CCCC3)c(O)c1 | Saccharomyces cerevisiae | 34.9
N#Cc1c(NC(=O)N/N=C/c2ccc(O)cc2O)sc2c1CCCC2 | Saccharomyces cerevisiae | 63.1
N#Cc1c(NC(=O)N/N=C/c2cccc(O)c2O)sc2c1CCCC2 | Saccharomyces cerevisiae | 68.2
N#Cc1c(NC(=O)N/N=C/c2ccc(O)c(O)c2O)sc2c1CCCC2 | Saccharomyces cerevisiae | 85.9

Query: Give the measured inhibition of Cc1cc(/C=N/NC(=O)Nc2sc3c(c2C#N)CCCC3)ccc1O .
Response: 72.2

Query: Give the measured inhibition of COC(=O)c1ccc(/C=N/NC(=O)Nc2sc3c(c2C#N)CCCC3)cc1 .
Response: 7.69

* * *

test: Cytotoxicity against human L02 cells assessed as cell viability at 100 uM by MTT assay relative to control; assay type: cell-based; conditions: read-out: Activity
result type: viability at 100 µM (%)
Response body: numeric value in %, unit text excluded.

smiles string | viability at 100 µM [%]
COc1cccc2c1C(=O)c1c(O)c3c(c(O)c1C2=O)C[C@@](O)(C(=O)CO)C[C@@H]3O[C@H]1C[C@H](N)[C@H](O)[C@H](C)O1 | 4

Query: Give the measured viability at 100 µM of N#Cc1c(NC(=O)N/N=C/c2ccc(O)c(O)c2)sc2c1CCCC2 .
Response: 96

Query: Give the measured viability at 100 µM of N#Cc1c(NC(=O)N/N=C/c2cc(O)cc(O)c2)sc2c1CCCC2 .
Response: 96.6

* * *

assay: Inhibition of Saccharomyces cerevisiae alpha-glucosidase assessed as decrease in release of p-nitrophenol using pNPG as substrate preincubated for 15 min followed by substrate addition and measured after 5 mins by spectrophotometric method
Recorded pIC50 by entry
A value of pIC50 is the negative decimal logarithm of a concentration given in moles per litre.

Before answering, review these 2 worked examples.
smiles string | observed
N#Cc1c(NC(=O)N/N=C/c2ccc(O)cc2O)sc2c1CCCC2 | 4.47
CCc1ccc(/C=N/NC(=O)Nc2sc3c(c2C#N)CCCC3)cc1 | 4.60

Next compound, please.
Query: Give the measured pIC50 of Cc1cc(/C=N/NC(=O)Nc2sc3c(c2C#N)CCCC3)ccc1O .
Response: 4.26

* * *

tested on: Saccharomyces cerevisiae; assay: Inhibition of Saccharomyces cerevisiae alpha-glucosidase assessed as decrease in release of p-nitrophenol at 100 uM using pNPG as substrate preincubated for 15 min followed by substrate addition and measured after 5 mins by spectrophotometric method relative to control; details: time 20.0 min
Recorded inhibition by entry
Response body: numeric value in %, unit text excluded.

Before answering, review these 4 worked examples.
smiles string | unit text | inhibition
Cc1cccc(/C=N/NC(=O)Nc2sc3c(c2C#N)CCCC3)c1O | % | 29.5
CCN(CC)c1ccc(/C=N/NC(=O)Nc2sc3c(c2C#N)CCCC3)cc1 | % | 77.3
N#Cc1c(NC(=O)N/N=C/c2cccc(O)c2)sc2c1CCCC2 | % | 48.4
Cc1cc(C)c(/C=N/NC(=O)Nc2sc3c(c2C#N)CCCC3)c(C)c1 | % | 52.3

Next molecule, please.
Query: Give the measured inhibition of N#Cc1c(NC(=O)N/N=C/c2ccc(N3CCCC3)cc2)sc2c1CCCC2 .
Response: 70.7
